test system: AR mRNA; test: Dose-dependent antisense inhibition of human AR in HuVEC cells (electroporation, qRT-PCR RTS3559, IC50); type: cell-based; details: 1000.0 nM; HuVEC, ~16 h; Table 12
Oligonucleotides are written 5' to 3', each unit as a sugar letter and its base; * is a phosphorothioate linkage, no mark a phosphodiester; rarer units and linkages stand in square brackets, end groups in braces. Plain capitals give the bases only. e = 2'-O-(2-methoxyethyl) (MOE); k = constrained ethyl (cEt); [5mC] = 5-methylcytosine; d = 2'-deoxy (DNA)
Catalogue of percent inhibition of AR values
I only need the number, in %, no unit after it.

Recorded results for 3 substances are shown here.
Substance	Unit Label	percent inhibition of AR
569221 (antisense eT*eG*kA*kT*kT*dT*dA*dA*dT*dG*dG*dT*dT*kG*k[5mC]*kA) [compound 569221]	%	73
569214 (antisense kG*kG*kT*dT*dG*dA*dT*dT*dT*dA*dA*dT*kG*kG*kT*eT) [compound 569214]	%	76
549458 (kG*kT*kT*dG*dA*dT*dT*dT*dA*dA*dT*dG*dG*kT*kT*kG) [compound 549458]	%	71

Turning now to a further substance:
Name the recorded percent inhibition of AR of 569217 (antisense eG*kT*kT*kG*dA*dT*dT*dT*dA*dA*dT*dG*kG*kT*kT*eG) [compound 569217] , assay system AR mRNA.
64

Hello, the source for this data is patent USRE48461E1, in case you need it.
